# Study target: M. tuberculosis InhA (Mycobacterium tuberculosis, UniProt P9WGR1)
# Construct: made in house; host or cells: E. coli
# Sequence (P9WGR1 whole entry, looked up): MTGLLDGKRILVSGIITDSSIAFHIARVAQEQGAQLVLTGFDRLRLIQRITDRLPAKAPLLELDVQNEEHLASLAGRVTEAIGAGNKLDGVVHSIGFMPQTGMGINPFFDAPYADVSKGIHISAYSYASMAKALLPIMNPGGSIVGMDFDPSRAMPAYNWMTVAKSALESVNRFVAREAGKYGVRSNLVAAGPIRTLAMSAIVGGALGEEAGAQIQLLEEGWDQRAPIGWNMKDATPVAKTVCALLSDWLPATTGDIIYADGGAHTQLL
# Measurement protocol: InhA enzymatic inhibition assay (NADH oxidation at 340 nm)
# Format: biochemical
# Test context: 70 nM InhA, 2 h pre-incubation, 25 °C, pH 6.8; read-out: InhA inhibition IC50
pIC50: −log10 of the molar value.
Catalogue of pIC50 readings, one per entry.
Assay metric: pIC50

[
  {
    "Compound": "CC(=O)c1ccc(OCc2cn(CC(=O)NCc3ccc(F)cc3)nn2)cc1",
    "Endpoint result": 7.39
  },
  {
    "Compound": "CC(=O)c1ccc(OCc2cn(CC(=O)Nc3ccc(Cl)c(Cl)c3)nn2)cc1",
    "Endpoint result": 7.37
  },
  {
    "Compound": "CO[C@H]1/C=C/O[C@@]2(C)Oc3c(C)c(O)c4c(O)c(c(/C=N/N5CCN(C)CC5)c(O)c4c3C2=O)NC(=O)/C(C)=C\\C=C\\[C@H](C)[C@H](O)[C@@H](C)[C@@H](O)[C@@H](C)[C@H](OC(C)=O)[C@@H]1C [Rifampicin, reference compound]",
    "Endpoint result": 5.07
  },
  {
    "Compound": "CC(=O)c1ccc(OCc2cn(CC(=O)NCc3ccc(C)cc3)nn2)cc1",
    "Endpoint result": 7.08
  }
]

----------
Catalogue of melting point readings, one per entry.

[
  {
    "Molecule": "CC(=O)c1ccc(OCc2cn(CC(=O)NCc3ccc(C)cc3)nn2)cc1 [Compound 13]",
    "melting point": "180 to 182 °C"
  },
  {
    "Molecule": "CC(=O)c1ccc(OCc2cn(CC(=O)Nc3ccc(Cl)c(Cl)c3)nn2)cc1 [Compound 11]",
    "melting point": "205 to 206 °C"
  },
  {
    "Molecule": "CC(=O)c1ccc(OCc2cn(CC(=O)NCc3ccc(F)cc3)nn2)cc1 [Compound 12]",
    "melting point": "165 to 166 °C"
  },
  {
    "Molecule": "COc1ccc(CNC(=O)Cn2cc(COc3ccc(C(C)=O)cc3)nn2)cc1 [Compound 14]",
    "melting point": "125 to 126 °C"
  },
  {
    "Molecule": "CC(=O)c1ccc(OCc2cn(CC(=O)Nc3ccccc3F)nn2)cc1 [Compound 9]",
    "melting point": "179 to 180 °C"
  },
  {
    "Molecule": "CC(=O)c1ccc(OCc2cn(CC(=O)Nc3ccc([N+](=O)[O-])cc3)nn2)cc1 [Compound 10]",
    "melting point": "185 to 186 °C"
  }
]

The measured values listed here are drawn from paper PMC9316523.
